Cited source: patent US20230357354A1

Target: recombinant His-tagged CD38 (Homo sapiens, UniProt P28907)
Test: Pepscan-based ELISA of His-tagged CD38 on CD31 peptide arrays
Format: binding
Settings: mimic type LOOP7 (single loop, mP2 CLIPS); sample with the highest signal
Recorded Value (binding intensity of His-tagged CD38), LOOP7 conformational peptide array for the following substances
Measurement Kind: Value (binding intensity of His-tagged CD38), LOOP7 conformational peptide array

Substance: 217 (CVQISILSC) [compound 217]
Result: 416 mAU

Substance: 194 (CEYQVLVEC) [compound 194]
Result: 651 mAU

Substance: 212 (CNPTEDVEC) [compound 212]
Result: 402 mAU
